Record form. Attribute: z-score. Fill in for each entry.
- tested-target: Homeobox protein Hox-A13 (Mus musculus) (UniProt Q62424)
- Sequence (Q62424 whole entry, looked up): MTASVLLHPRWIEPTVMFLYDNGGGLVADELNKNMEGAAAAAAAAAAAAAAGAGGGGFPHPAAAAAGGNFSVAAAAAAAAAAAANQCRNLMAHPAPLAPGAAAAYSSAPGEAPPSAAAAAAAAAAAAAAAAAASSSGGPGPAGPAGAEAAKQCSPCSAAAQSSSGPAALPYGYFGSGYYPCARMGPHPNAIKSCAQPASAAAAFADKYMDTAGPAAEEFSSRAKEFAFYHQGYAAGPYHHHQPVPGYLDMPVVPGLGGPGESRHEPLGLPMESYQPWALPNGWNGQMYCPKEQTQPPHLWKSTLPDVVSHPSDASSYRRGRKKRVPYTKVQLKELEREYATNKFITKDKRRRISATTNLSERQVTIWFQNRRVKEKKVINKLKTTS
- experimental-details: inhibitors of HoxA13-DNA binding, primary screen, biochemical, fluorescence polarization, labeled oligonucleotide (AID 1185)
- measurement-setup: 15 min, higher = more signal, called active from +8 up or from −8 down
Give the figure only, with no unit attached.

Note to self: z-score recorded for CN(C)CCCCNC(=O)[C@H]1C[C@H]2C(=O)N[C@@H](CCCCN(C)C)C(=O)N2[C@H]1c1ccc(O)cc1 was 0.0335

For this compound ( Cc1ccc(S(=O)(=O)N2[C@@H](c3ccccc3)C(C(=O)O)=C[C@H]2C(C)(C)C)cc1 ), measured z-score is -5.12

response.value for COc1c(C)cc(-c2cc3c(c(CCc4ccccc4)n2)[Si](C(C)C)(C(C)C)O[C@H]3c2ccccc2)cc1C (field: z-score) = 1.6

For this compound ( COCCCNC(=O)[C@@]1(CCC(=O)OC(C)(C)C)N=C(c2ccc(OCCCO)cc2)O[C@H]1c1ccccc1 ), measured z-score is -4.75
